# TARGET DESC: hGcgR (Homo sapiens, UniProt P47871)
# Sequence (P47871 26-477): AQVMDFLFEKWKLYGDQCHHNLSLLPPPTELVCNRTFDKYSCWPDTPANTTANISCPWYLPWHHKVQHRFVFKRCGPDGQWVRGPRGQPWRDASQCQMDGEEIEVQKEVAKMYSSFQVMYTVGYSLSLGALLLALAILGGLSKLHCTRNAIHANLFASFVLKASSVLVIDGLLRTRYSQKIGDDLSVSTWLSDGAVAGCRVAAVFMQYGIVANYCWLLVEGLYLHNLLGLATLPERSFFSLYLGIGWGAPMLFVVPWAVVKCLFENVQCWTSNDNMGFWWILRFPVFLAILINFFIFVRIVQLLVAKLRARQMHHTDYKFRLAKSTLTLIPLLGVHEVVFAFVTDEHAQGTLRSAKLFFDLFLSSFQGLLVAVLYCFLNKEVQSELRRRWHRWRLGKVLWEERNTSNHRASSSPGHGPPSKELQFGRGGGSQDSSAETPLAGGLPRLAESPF
# EXPERIMENT: Functional cAMP activation in the presence of 0.1% casein (no HSA);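 also: intracellular cAMP rise after 30 min at 37 °C, read by HTRF against a cAMP standard curve, scaled from buffer only (0%) to maximal control ligand response (100%)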
# Format: cell-based
# CONDITION CONTEXT: in the presence of 0.1% casein (no HSA); geometric mean; read-out: Relative cAMP EC50, hGcgR
Starred links: 1 amine or outer side, 2 acyl side, 3 side chain; linkers in the order of their positions; H or OH if unused. Non-standard residues stand in square brackets, D forms with d. Groups on a side chain read outwards from the residue. *: point of attachment. C18 diacid = O=C(O)CCCCCCCCCCCCCCCCC(=O)*; αMePhe(2-F) = C[C@](N)(Cc1ccccc1F)C(=O)O; γGlu = O=C(O)[C@H](CCC(=O)[*:2])N[*:1]; αMe4Pal = C[C@](N)(Cc1ccncc1)C(=O)O; αMeY = C[C@](N)(Cc1ccc(O)cc1)C(=O)O; 4Pal = N[C@@H](Cc1ccncc1)C(=O)O; αMeL = CC(C)C[C@](C)(N)C(=O)O; αMeS = C[C@](N)(CO)C(=O)O; Orn = NCCC[C@H](N)C(=O)O; AEEA = NCCOCCOCC(=O)O; Aib = CC(C)(N)C(=O)O
pEC50 values, listed per item
pEC50 is defined as minus the log10 of a concentration measured in mol/L.

[[record]]
substance = "H-Y[Aib]QGTFTSD[4Pal]SQ[αMeL]LDKK([Glu-Glu-γGlu-C18 diacid])AQ[αMe4Pal]AFIEYLIAGGPSSGAPPPSGE-NH2 [Example 1087]"
endpoint = "pEC50"
measurement = 7.81


Reported pEC50, substance H-Y[Aib]QGT[αMePhe(2-F)]TSD[4Pal][αMeS]I[αMeL]LD[Orn]K([AEEA-γGlu-γGlu-C18 diacid])AQ[αMe4Pal]EFI[dE][αMeY]LIEGGPSSGEPPPSGE-NH2 [Example 1177] : ____
8.37

Reported pEC50, substance H-Y[Aib]QGTFTSD[4Pal]SQ[αMeL]LDKK([AEEA-γGlu-γGlu-C18 diacid])AQ[αMe4Pal]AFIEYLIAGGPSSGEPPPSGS-NH2 [Example 947] : ____
8.16
